The reported measurements were obtained from patent US4542018A.

assay_comment: Solubility
Type: physicochemical
measurement_parameters: methanol, ethanol

compound | solubility in methanol and ethanol
CCC(C)CCCCCCC(=O)N[C@H]1[C@H](Oc2c3cc4cc2Oc2ccc(cc2Cl)[C@@H](O[C@@H]2O[C@H](CO)[C@@H](O)[C@H](O)[C@H]2NC(C)=O)[C@@H]2NC(=O)[C@H](NC(=O)[C@@H]4NC(=O)[C@H]4NC(=O)[C@@H](Cc5ccc(c(Cl)c5)O3)NC(=O)[C@H](N)c3ccc(O)c(c3)Oc3cc(O)cc4c3)c3ccc(O)c(c3)-c3c(O[C@H]4O[C@H](CO)[C@@H](O)[C@H](O)[C@@H]4O)cc(O)cc3[C@@H](C(=O)O)NC2=O)O[C@H](CO)[C@@H](O)[C@@H]1O (some centres unmarked) | poorly soluble
CCCCCCCCCC(=O)N[C@H]1[C@H](Oc2c3cc4cc2Oc2ccc(cc2Cl)[C@@H](O[C@@H]2O[C@H](CO)[C@@H](O)[C@H](O)[C@H]2NC(C)=O)[C@@H]2NC(=O)[C@H](NC(=O)[C@@H]4NC(=O)[C@H]4NC(=O)[C@H](Cc5ccc(c(Cl)c5)O3)NC(=O)[C@H](N)c3ccc(O)c(c3)Oc3cc(O)cc4c3)c3ccc(O)c(c3)-c3c(O[C@H]4O[C@H](CO)[C@@H](O)[C@H](O)[C@@H]4O)cc(O)cc3[C@@H](C(=O)O)NC2=O)O[C@H](CO)[C@@H](O)[C@@H]1O | poorly soluble
